target: BRD4-BD2 (Homo sapiens (Human), UniProt O60885); test: BRD4 AlphaScreen Assay (Example A1), BRD4-BD2; assay type: binding; conditions: Assay A1, 20 nM BRD4-BD2, 50 nM H4Ac4 peptide; read-out: BRD4 BD-2 enzyme IC50
pIC50: −log10 of the molar value.
Field: pIC50. Provide a value for each of the compounds that follow.

compound | endpoint label | readout value
Cc1noc(C)c1-c1ccc2[nH]c(=O)n3c2c1OCC3c1ccccc1OCC(=O)NCCO (stereo not shown) | pIC50 | > 7.00
Cn1nccc1-c1cc(Br)c2[nH]c(=O)n3c2c1OCC3c1ccccc1 (stereo not shown) | pIC50 | > 7.00
Cc1noc(C)c1-c1ccc2[nH]c(=O)n3c2c1OC(C)C3c1ccccc1 (stereo not shown) | pIC50 | > 7.00

Let's switch to this compound now.
Name the reported pIC50 value associated with the compound Cc1noc(C)c1-c1ccc2nc(NC(C)(C)CO)n3c2c1OCC3c1ccccc1 (stereo not shown)
6.00 to 7.00

* * *

Field: IC50. Provide a value for each of the molecules that follow.
biological target: BRD4-BD2 (Homo sapiens (Human), UniProt O60885); assay: BRD4 AlphaScreen Assay (Example A2), BRD4-BD2; format: binding; settings: Assay A2, AlphaScreen, BRD4-BD2; read-out: BRD4 BD-2 enzyme IC50

molecule | readout value
Cc1noc(C)c1-c1cc(CNC(=O)CN(C)C)c2[nH]c(=O)n3c2c1OC[C@@H]3c1ccccn1 | < 100 nM
Cc1noc(C)c1-c1ccc2nc(N3CC(O)C3)n3c2c1OCC3c1cccnc1 (single isomer, unassigned) [Example 160B] | 1000 to 10000 nM

Provide IC50 for all items below, preserving their order.
1. Cc1noc(C)c1-c1cc(-c2ccccc2)c2[nH]c(=O)n3c2c1OCC3c1ccccc1 (stereo not shown)
2. Cc1noc(C)c1-c1ccc2nc(N3CC(O)C3)n3c2c1OCC3c1cccnc1 (single isomer, unassigned) [Example 160A]
3. Cc1noc(C)c1-c1ccc2nc(C3CCN(S(C)(=O)=O)CC3)n3c2c1OC[C@@H]3c1ccccn1
4. Cc1noc(C)c1-c1cc(-c2cccnc2)c2[nH]c(=O)n3c2c1OCC3c1ccccc1 (stereo not shown)
5. Cc1noc(C)c1-c1cc(C)c2[nH]c(=O)n3c2c1OCC3c1ccccn1 (stereo not shown)

["< 100 nM", "100 to 1000 nM", "< 100 nM", "< 100 nM", "100 to 1000 nM"]

* * *

target: BRD4-BD1 (Homo sapiens (Human), UniProt O60885); assay: BRD4 AlphaScreen Assay (Example A1), BRD4-BD1; format: binding; details: Assay A1, 3.8 nM BRD4-BD1, 50 nM H4Ac4 peptide; read-out: BRD4 BD-1 enzyme IC50
pIC50: −log10 of the molar value.
Field: pIC50. Provide a value for each of the molecules that follow.

Provide pIC50 for all items below, preserving their order.
1. Cc1noc(C)c1-c1ccc2[nH]c(=O)n3c2c1OCC3c1ccccn1 (single isomer, unassigned) [Example 15]
2. Cc1noc(C)c1-c1ccc2[nH]c(=O)n3c2c1OCC3c1ccc(F)cc1 (stereo not shown)
3. Cc1noc(C)c1-c1ccc2nc(N3CCCC(O)C3)n3c2c1OCC3c1ccccc1 (stereo not shown)
4. COc1cccc(C2COc3c(-c4c(C)noc4C)ccc4[nH]c(=O)n2c34)c1 (stereo not shown)
5. Cn1ncc(Cl)c1-c1ccc2[nH]c(=O)n3c2c1OCC3c1ccccc1 (stereo not shown)
6. Cc1n[nH]cc1-c1ccc2[nH]c(=O)n3c2c1OCC3c1ccccc1 (stereo not shown)

> 7.00
> 7.00
> 7.00
> 7.00
5.00 to 6.00
6.00 to 7.00

Name the reported pIC50 value associated with the molecule Cc1noc(C)c1-c1ccc2[nH]c(=O)n3c2c1OC(C)C3c1ccccc1 (stereo not shown)
> 7.00

* * *

molecular target: BRD4-BD2 (Homo sapiens (Human)); assay: BRD4 AlphaScreen Assay (Example A2), BRD4-BD2; assay type: binding; conditions: Assay A2, AlphaScreen, BRD4-BD2; read-out: BRD4 BD-2 enzyme IC50
pIC50: −log10 of the molar value.
Field: pIC50. Provide a value for each of the compounds that follow.

// below: answered compounds
compound | pIC50
Cc1noc(C)c1-c1cc(CN)c2[nH]c(=O)n3c2c1OC[C@@H]3c1ccccn1 [Example 137, bis(trifluoroacetate)] | > 7.00
CC(=O)N1CCCC(c2nc3ccc(-c4c(C)noc4C)c4c3n2[C@@H](c2ccccn2)CO4)C1 (mixture of isomers) | > 7.00
Cc1noc(C)c1-c1ccc2nc(C3CCN(C(=O)OC(C)(C)C)C3)n3c2c1OC[C@@H]3c1ccccn1 (single isomer, unassigned; diastereoisomer 2) [Example 101B] | > 7.00
Cc1noc(C)c1-c1cc(-c2ccnn2C)c2[nH]c(=O)n3c2c1OC[C@@H]3c1ccccn1 [Example 85, 2,2,2-trifluoroacetate] | 6.00 to 7.00
CC(=O)N1CC=C(c2nc3ccc(-c4c(C)noc4C)c4c3n2[C@@H](c2ccccn2)CO4)CC1 | > 7.00

Provide pIC50 for all items below, preserving their order.
1. Cc1noc(C)c1-c1ccc2[nH]c(=O)n3c2c1OC(C(=O)NCCO)C3c1ccccc1 (single isomer, unassigned) [Example 48B]
2. Cc1noc(C)c1-c1ccc2nc(C3CCNC3)n3c2c1OC[C@@H]3c1ccccn1 (single isomer, unassigned; diastereomer 1) [Example 106A]
3. Cc1noc(C)c1-c1ccc2[nH]c(=O)n3c2c1OC(C)(C)C3c1ccccn1 (single isomer, unassigned) [Example 61A]
4. Cc1noc(C)c1-c1ccc2[nH]c(=S)n3c2c1OCC3c1ccccn1 (stereo not shown)
5. CCOC(=O)/C=C/c1cc(-c2c(C)noc2C)c2c3c1[nH]c(=O)n3[C@@H](c1ccccn1)CO2 [Example 86, 2,2,2-trifluoroacetate]
6. CC(=O)N1CCC(c2nc3ccc(-c4c(C)noc4C)c4c3n2[C@@H](c2ccccn2)CO4)C1 (single isomer, unassigned; diastereomer 1) [Example 113A]
7. Cc1noc(C)c1-c1ccc2nc(C(=O)OC(C)(C)C)n3c2c1OC[C@@H]3c1ccccn1
8. Cc1noc(C)c1-c1ccc2nc(N3CC(O)C3)n3c2c1OCC3c1cccnc1 (single isomer, unassigned) [Example 160D]

1. > 7.00
2. > 7.00
3. > 7.00
4. > 7.00
5. > 7.00
6. > 7.00
7. > 7.00
8. 5.00 to 6.00

Provide pIC50 for all items below, preserving their order.
1. Cc1noc(C)c1-c1cc(F)c2[nH]c(=O)n3c2c1OCC3c1ccccn1 (stereo not shown) [Example 265B]
2. Cc1noc(C)c1-c1cc(C2=CCN(C(=O)OC(C)(C)C)CC2)c2[nH]c(=O)n3c2c1OC[C@@H]3c1ccccn1 [Example 83, 2,2,2-trifluoroacetate]

["> 7.00", "> 7.00"]

Provide pIC50 for all items below, preserving their order.
1. Cc1noc(C)c1-c1ccc2[nH]c(=O)n3c2c1OC(C(N)=O)C3c1ccccn1 (stereo not shown) [Example 77, 2,2,2-trifluoroacetate]
2. Cc1noc(C)c1-c1ccc2nc(C3CCN(C(=O)OC(C)(C)C)CC3)n3c2c1OC[C@@H]3c1ccccn1
3. Cc1noc(C)c1-c1ccc2ncn3c2c1OC[C@@H]3c1ccccn1
4. Cc1noc(C)c1-c1ccc2[nH]c(=O)n3c2c1OCC3(C(N)=O)c1ccccn1 (stereo not shown) [Example 74, 2,2,2-trifluoroacetate]

1: 6.00 to 7.00; 2: > 7.00; 3: > 7.00; 4: > 7.00
